# test-description: The drug is tested on Z-002 corresponding to rabbit gut metagenome with ENA study accession number: PRJEB37062 and ENA sample accession number: ERS12561802 for biotransformation under anaerobic condition. The drug concentrations were measured over 9 timepoints collected between 0 and 24 hours of incubation by liquid-chromatography-coupled mass spectrometry (LC–MS); also: call rule not given here
# study-conditions: 2 µM
result-type: Bacterial Biotransformation

Example entries and their recorded answers appear below.
1) CCCCC(=O)N(Cc1ccc(-c2ccccc2-c2nnn[nH]2)cc1)[C@H](C(=O)O)C(C)C = Compound NOT metabolized
2) COc1ccc2c3c1O[C@H]1C[C@@H](O)C=C[C@@]31CCN(C)C2 [GALANTAMINE] = Compound metabolized
3) CN(C)CC(c1ccc(O)cc1)C1(O)CCCCC1.O=C(O)CCC(=O)O (stereo not given) [DESVENLAFAXINE SUCCINATE] = Compound NOT metabolized
4) COc1cc2nc(N3CCN(C(=O)c4ccco4)CC3)nc(N)c2cc1OC [PRAZOSIN] = Compound NOT metabolized
5) CC(C)(Oc1ccc(CCNC(=O)c2ccc(Cl)cc2)cc1)C(=O)O [BEZAFIBRATE] = Compound metabolized

Turning now to a further record.
Could you please provide reported Bacterial Biotransformation for CCN(CC)CC#CCOC(=O)C(O)(c1ccccc1)C1CCCCC1.Cl (stereo not given) [OXYBUTYNIN CHLORIDE] ? Thanks!
Compound metabolized

* * *

# study-conditions: human gut metagenome, 24 h, 2 µM
result-type: Bacterial Biotransformation

Example entries and their recorded answers appear below.
1. NC12CC3CC(CC(C3)C1)C2 = Compound NOT metabolized
2. CO[C@]12C[C@@H](COC(=O)c3cncc(Br)c3)CN(C)[C@@H]1Cc1cn(C)c3cccc2c13 = Compound NOT metabolized
3. COC(=O)[C@H]1[C@H]2C[C@@H]3c4[nH]c5cc(OC)ccc5c4CCN3C[C@H]2C[C@@H](OC(=O)c2cc(OC)c(OC)c(OC)c2)[C@@H]1OC = Compound metabolized
4. Fc1ccc([C@@H]2CCNC[C@H]2COc2ccc3c(c2)OCO3)cc1 = Compound metabolized
5. O=c1[nH]c2ccccc2n1C1CCN(CCCC(c2ccc(F)cc2)c2ccc(F)cc2)CC1 [PIMOZIDE] = Compound metabolized
6. COc1ccc2c(c1OC)C(=O)O[C@@H]2[C@H]1c2c(cc3c(c2OC)OCO3)CCN1C = Compound metabolized
7. CN1C(C(=O)Nc2ccccn2)=C(O)c2sccc2S1(=O)=O = Compound NOT metabolized

Turning now to a further record.
Could you please provide reported Bacterial Biotransformation for C#C[C@]1(O)CC[C@H]2[C@@H]3CCC4=CC(=O)CC[C@@H]4[C@H]3CC[C@@]21CC ? Thanks!
Compound metabolized

* * *

# test-description: The drug is tested on Z-012 corresponding to metagenome with ENA study accession number: PRJEB37062 and ENA sample accession number: ERS12561812 for biotransformation under anaerobic condition. The drug concentrations were measured over 9 timepoints collected between 0 and 24 hours of incubation by liquid-chromatography-coupled mass spectrometry (LC–MS)
# study-conditions: 2 µM
result-type: Bacterial Biotransformation

Example entries and their recorded answers appear below.
1) CNS(=O)(=O)Cc1ccc2[nH]cc(CCN(C)C)c2c1.O=C(O)CCC(=O)O [SUMATRIPTAN SUCCINATE] = Compound NOT metabolized
2) CCOC(=O)[C@H](CCc1ccccc1)N[C@H]1CCc2ccccc2N(CC(=O)O)C1=O [BENAZEPRIL] = Compound metabolized
3) COc1cc2nc(N3CCN(C(=O)c4ccco4)CC3)nc(N)c2cc1OC [PRAZOSIN] = Compound NOT metabolized
4) CNC(=C[N+](=O)[O-])NCCSCc1csc(CN(C)C)n1 [NIZATIDINE] = Compound NOT metabolized

Could you please provide reported Bacterial Biotransformation for COc1c(C)c2c(c(O)c1C/C=C(\C)CCC(=O)OCCN1CCOCC1)C(=O)OC2 [MYCOPHENOLATE MOFETIL] ? Thanks!
Compound metabolized

Could you please provide reported Bacterial Biotransformation for Fc1ccc([C@@H]2CCNC[C@H]2COc2ccc3c(c2)OCO3)cc1 [PAROXETINE] ? Thanks!
Compound NOT metabolized

Could you please provide reported Bacterial Biotransformation for Cc1ccccc1N1C(=O)c2cc(S(N)(=O)=O)c(Cl)cc2NC1C (stereo not drawn) [METOLAZONE] ? Thanks!
Compound NOT metabolized

Could you please provide reported Bacterial Biotransformation for CC(Oc1c(Cl)cccc1Cl)C1=NCCN1 (stereo not drawn) [LOFEXIDINE] ? Thanks!
Compound NOT metabolized

Could you please provide reported Bacterial Biotransformation for OCCOCCN1CCN(C2=Nc3ccccc3Sc3ccccc32)CC1 [QUETIAPINE] ? Thanks!
Compound NOT metabolized

Could you please provide reported Bacterial Biotransformation for Nc1ccc(/N=N/c2ccccc2)c(N)n1 [PHENAZOPYRIDINE] ? Thanks!
Compound metabolized

Could you please provide reported Bacterial Biotransformation for CC[C@@H](CO)NC(=O)[C@@H]1C=C2c3cccc4c3c(cn4C)C[C@H]2N(C)C1.O=C(O)/C=C\C(=O)O [METHYSERGIDE MALEATE] ? Thanks!
Compound NOT metabolized

Could you please provide reported Bacterial Biotransformation for NC12CC3CC(CC(C3)C1)C2 [AMANTADINE] ? Thanks!
Compound NOT metabolized
